- experimentalTarget: PNCK Nano-luciferase fusion (Homo sapiens, UniProt Q6P2M8)
- Construct: host or cells: HEK293
- Sequence (Q6P2M8 whole entry, the tested form may be a part): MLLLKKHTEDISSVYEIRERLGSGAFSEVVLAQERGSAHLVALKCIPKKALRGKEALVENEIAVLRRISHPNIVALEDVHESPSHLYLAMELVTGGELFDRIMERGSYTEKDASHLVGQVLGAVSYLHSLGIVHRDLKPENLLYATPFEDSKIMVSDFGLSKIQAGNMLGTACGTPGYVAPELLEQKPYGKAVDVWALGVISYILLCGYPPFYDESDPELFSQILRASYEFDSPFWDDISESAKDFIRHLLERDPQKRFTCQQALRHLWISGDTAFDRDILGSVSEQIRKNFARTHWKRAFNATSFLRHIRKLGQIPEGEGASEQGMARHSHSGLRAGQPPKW
- procedureSummary: NanoBRET Target Engagement Intracellular Kinase Assay, cell-based PNCK binding screen and dose response in HEK293 cells
- reportedConditions: compound 1uM; HEK293; K10 tracer 1uM; normalized to staurosporine and DMSO; read-out: Avg. Normalized % Inhibition, 1uM, Nanobret
As shown below, each of these molecules has a reported inhibition at 1 µM value.
# output: number + unit

- molecule: "COc1cccc(-n2nnc3c(=O)n(CC(=O)N4CCCC4)cnc32)c1"
  inhibition at 1 µM: "21.2%"

Could you now consider this next molecule?
stdin: Name the reported inhibition at 1 µM value associated with the molecule "COc1ccccc1N(CCC(N)=O)C(=O)COc1ccc2c(c1)CCCC2=O"
stdout: 22.8%

====

As shown below, each of these compounds has a reported inhibition at 1 µM value.
- experimentalTarget: PNCK Nano-luciferase fusion (Homo sapiens, UniProt Q6P2M8)
- Construct: host or cells: HEK293
- procedureSummary: NanoBRET Target Engagement Intracellular Kinase Assay, cell-based PNCK binding screen and dose response in HEK293 cells
- reportedConditions: compound 1uM; HEK293; K10 tracer 1uM; normalized to staurosporine and DMSO; read-out: Avg. Normalized % Inhibition, 1uM, Nanobret
Record the value in %, omitting the unit from your answer.

- compound: "COc1ccc2c(O)c(C(=O)N(C)Cc3c(C)noc3C)cnc2c1 [UM_200]"
  experimentalTarget: "PNCK Nano-luciferase fusion (Homo sapiens, UniProt Q6P2M8)"
  displayUnit: "%"
  inhibition at 1 µM: 0
- compound: "Cc1[nH]ccc1C(=O)NC1CCC(N2C(=O)CCC2=O)CC1 (centres unmarked) [UM_211]"
  experimentalTarget: "PNCK Nano-luciferase fusion (Homo sapiens, UniProt Q6P2M8)"
  displayUnit: "%"
  inhibition at 1 µM: 0
- compound: "Cc1ccc2[nH]c(SCc3cc(=O)n4ccccc4n3)nc2c1 [UM_197]"
  experimentalTarget: "PNCK Nano-luciferase fusion (Homo sapiens, UniProt Q6P2M8)"
  displayUnit: "%"
  inhibition at 1 µM: 1.23
- compound: "Cc1cc(C)n2nc(SCc3cc(=O)n4cc(Br)ccc4n3)nc2n1 [UM_201]"
  experimentalTarget: "PNCK Nano-luciferase fusion (Homo sapiens, UniProt Q6P2M8)"
  displayUnit: "%"
  inhibition at 1 µM: 3.26
- compound: "CCc1nc(N)nc(SCCCn2c(=O)[nH]c3ccccc32)n1 [UM_276]"
  experimentalTarget: "PNCK Nano-luciferase fusion (Homo sapiens, UniProt Q6P2M8)"
  displayUnit: "%"
  inhibition at 1 µM: 10.9
- compound: "O=C1CCCc2c1cnc1nc(N3CCCCC3)nc(O)c21 [UM_232]"
  experimentalTarget: "PNCK Nano-luciferase fusion (Homo sapiens, UniProt Q6P2M8)"
  displayUnit: "%"
  inhibition at 1 µM: 1.49

stdin: Name the reported inhibition at 1 µM value associated with the compound O=C1CCCN1CC(O)COc1ccc2c3c(c(=O)oc2c1)CCCCC3 (centres unmarked) [UM_257]
stdout: 15.2

stdin: Name the reported inhibition at 1 µM value associated with the compound O=C(O)Cc1cc(C2CCN(C(=O)c3ccc(C(F)(F)F)nc3O)CC2)[nH]n1 [UM_031]
stdout: 13.3

stdin: Name the reported inhibition at 1 µM value associated with the compound O=C(O)c1cccc(NS(=O)(=O)/C=C/c2ccc(Cl)cc2)c1 [UM_235]
stdout: 4.02

stdin: Name the reported inhibition at 1 µM value associated with the compound O=c1[nH]c(CSc2nc3ccccc3o2)nc2ccc(Cl)cc12 [UM_280]
stdout: 33.4

stdin: Name the reported inhibition at 1 µM value associated with the compound NC(=O)Cn1cnc2cc(-c3ccc(Cl)cc3)sc2c1=O [UM_219]
stdout: 0.98

stdin: Name the reported inhibition at 1 µM value associated with the compound Cc1cc(C)n2nc(SCc3nc(-c4ccccc4)no3)nc2n1 [UM_217]
stdout: 10.5

stdin: Name the reported inhibition at 1 µM value associated with the compound CCn1c(SCCCn2c(=O)[nH]c3ccccc32)n[nH]c1=O [UM_274]
stdout: 34.2

stdin: Name the reported inhibition at 1 µM value associated with the compound O=C(O)c1ccc(-c2nc3c([nH]2)CCN(C(=O)c2cc(C4CC4)n[nH]2)C3)cc1 [UM_034]
stdout: 6.51
